Tested on: HIV-1IIIB
protocolText: Anti-HIV cytoprotection assay in CEM-SS cells infected with HIV-1IIIB, XTT viability readout after 6 days
Format: cell-based
appliedConditions: Human immunodeficiency virus 1, CEM-SS, 144 h

>  <smilesRepr>
C[C@@H]1CCO[C@H]2Cn3cc(C(=O)NCc4ccc(F)cc4F)c(=O)c(O)c3C(=O)N12

>  <EC50 / nM>
0.12

$$$$
